system: [^3H]dUMP-labelled DNA; test: Kinetic parameters on uracil substrate; format: biochemical; details: U-ss substrate
reported.property: Km (µM)
Numbers only, in µM.

# query: Km of entry Tyr147Phe: human UDG (UNGΔ84) mutant with Tyr147 replaced by Phe (protein) MGVFCLGPWGLGRKLRTPGKGPLQLLSRLCGDHLQAIPAKKAPAGQEEPGTPPSSPLSAEQLDRIQRNKAAALLRLAARNVPVGFGESWKKHLSGEFGKPYFIKLMGFVAEERKHYTVYPPPHQVFTWTQMCDIKDVKVVILGQDPFHGPNQAHGLCFSVQRPVPPPPSLENIYKELSTDIEDFVHPGHGDLSGWAKQGVLLLNAVLTVRAHQANSHKERGWEQFTDAVVSWLNQNSNGLVFLLWGSYAQKKGSAIDRKRHHVLQTAHPSPLSVYRGFFGCRHFSKTNELLQKSGKKPIDWKEL
0.1
